Provide the reported % bound of each item.
# assayed.system: T1, human collagen type I (acid soluble, extracted from placenta, Sigma C7774) (human, UniProt P02452 162-1218; P08123 80-1119)
# T1 construct: gelled and dried as a fibril film in the assay; also called dried human collagen; h-Collagen
# T1 sequence (P02452 162-1218 limits assumed, chain 1 of 2): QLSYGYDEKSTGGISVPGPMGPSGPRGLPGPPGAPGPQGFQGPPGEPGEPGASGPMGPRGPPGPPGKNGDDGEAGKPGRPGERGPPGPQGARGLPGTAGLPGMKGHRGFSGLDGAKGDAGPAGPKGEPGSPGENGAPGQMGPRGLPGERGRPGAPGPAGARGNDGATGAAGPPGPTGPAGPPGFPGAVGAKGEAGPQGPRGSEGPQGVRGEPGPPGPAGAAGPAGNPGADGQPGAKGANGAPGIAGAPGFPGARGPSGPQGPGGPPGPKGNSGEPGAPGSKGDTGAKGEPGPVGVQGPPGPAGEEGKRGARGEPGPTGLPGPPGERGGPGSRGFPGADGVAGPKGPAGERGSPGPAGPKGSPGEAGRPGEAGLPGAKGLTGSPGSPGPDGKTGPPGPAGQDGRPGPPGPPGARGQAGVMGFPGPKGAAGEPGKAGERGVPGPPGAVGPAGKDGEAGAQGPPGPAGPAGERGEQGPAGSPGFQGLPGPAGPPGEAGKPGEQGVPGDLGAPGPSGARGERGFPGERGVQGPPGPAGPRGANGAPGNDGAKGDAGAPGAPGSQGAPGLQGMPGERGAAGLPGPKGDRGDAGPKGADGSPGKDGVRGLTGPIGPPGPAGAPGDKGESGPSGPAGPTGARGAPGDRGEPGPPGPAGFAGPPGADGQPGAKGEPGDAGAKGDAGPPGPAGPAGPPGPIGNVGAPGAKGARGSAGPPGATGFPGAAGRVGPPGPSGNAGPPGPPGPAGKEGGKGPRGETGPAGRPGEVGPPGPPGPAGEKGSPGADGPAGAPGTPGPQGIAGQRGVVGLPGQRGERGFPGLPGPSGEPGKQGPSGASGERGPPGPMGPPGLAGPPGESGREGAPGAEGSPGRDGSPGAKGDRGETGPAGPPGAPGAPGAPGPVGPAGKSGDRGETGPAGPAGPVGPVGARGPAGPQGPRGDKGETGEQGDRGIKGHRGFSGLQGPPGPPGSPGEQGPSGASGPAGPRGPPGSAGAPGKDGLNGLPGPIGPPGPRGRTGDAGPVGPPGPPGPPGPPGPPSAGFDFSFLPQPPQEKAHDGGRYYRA
# T1 sequence (P08123 80-1119 limits assumed, chain 2 of 2): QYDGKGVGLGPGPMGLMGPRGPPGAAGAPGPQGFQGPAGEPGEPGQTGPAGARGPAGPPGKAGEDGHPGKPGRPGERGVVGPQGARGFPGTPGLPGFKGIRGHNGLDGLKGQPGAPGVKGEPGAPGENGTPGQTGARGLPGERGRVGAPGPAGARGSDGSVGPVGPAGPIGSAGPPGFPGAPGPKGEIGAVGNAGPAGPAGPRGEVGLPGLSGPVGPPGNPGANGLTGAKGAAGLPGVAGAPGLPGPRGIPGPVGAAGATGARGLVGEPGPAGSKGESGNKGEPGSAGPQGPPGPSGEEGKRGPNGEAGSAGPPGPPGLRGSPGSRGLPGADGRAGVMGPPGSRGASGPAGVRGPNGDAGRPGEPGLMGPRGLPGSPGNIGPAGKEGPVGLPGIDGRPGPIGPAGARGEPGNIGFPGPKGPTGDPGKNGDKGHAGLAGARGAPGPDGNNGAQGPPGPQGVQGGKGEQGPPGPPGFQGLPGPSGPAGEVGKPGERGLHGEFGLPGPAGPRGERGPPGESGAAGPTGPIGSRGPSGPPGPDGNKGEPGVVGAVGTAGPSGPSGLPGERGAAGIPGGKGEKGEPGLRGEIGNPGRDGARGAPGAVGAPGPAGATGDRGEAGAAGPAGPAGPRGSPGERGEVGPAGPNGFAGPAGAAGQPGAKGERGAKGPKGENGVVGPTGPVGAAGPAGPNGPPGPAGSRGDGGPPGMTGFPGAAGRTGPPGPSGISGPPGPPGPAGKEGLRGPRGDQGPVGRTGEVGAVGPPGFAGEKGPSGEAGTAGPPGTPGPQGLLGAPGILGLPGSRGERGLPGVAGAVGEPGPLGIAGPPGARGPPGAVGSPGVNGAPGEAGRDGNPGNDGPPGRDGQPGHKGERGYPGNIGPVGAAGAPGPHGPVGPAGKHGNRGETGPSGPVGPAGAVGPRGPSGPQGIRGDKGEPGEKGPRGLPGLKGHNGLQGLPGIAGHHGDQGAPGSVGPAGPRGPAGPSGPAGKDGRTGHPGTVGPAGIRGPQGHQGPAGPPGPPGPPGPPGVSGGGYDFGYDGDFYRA
# procedure.details: dried collagen assay
Bridge positions count the residues as written; N and C are the ends. Square brackets hold non-standard residues; d marks the D form. Primed or numbered codes have the meaning given here. Side chains are listed from the residue outwards. Ends that are not written are not given here. * marks the point of attachment. Bip = N[C@@H](Cc1ccc(-c2ccccc2)cc1)C(=O)O; Gd^T = not defined here; Gd^T″ = GdDTPA-thiourea; Cbz = O=C(OCc1ccccc1)*; Dap = NC[C@H](N)C(=O)O
State just the number; it will be interpreted in %.

Query :: Would you kindly share the measured % bound for {Gd^T}-GQWHCT[dN]RFPHHYCLYG (disulfide 5-14 (inferred); not fully specified (C-terminus); printed as Gd^T-GQWHCTnRFPHHYCLYG; reading uncertain) [Comp ID 897] ?
Result :: 4

Query :: Given the entry {Gd^T}-GQWHCT[dS]RFPHHYCLYG (disulfide 5-14 (inferred); not fully specified (C-terminus); printed as Gd^T-GQWHCTsRFPHHYCLYG; reading uncertain) [Comp ID 898] , report its measured % bound.
Result :: 5

Query :: Consider the binder {Gd^T″}-GK([Gly-Gd^T″])WHCTTYFPHH[Bip]CLYG (disulfide 5-14; not fully specified (C-terminus); printed as Gd^T-G-K(G.Gd^T)-WHCTTYFPHH-Bip-CLYG) [Comp ID 951] and give its measured % bound.
Result :: 45

Query :: # % bound lookup, item Cbz-GQWHCT[Dap](Gd^T″)RFPHHYCLYG (disulfide 5-14; not fully specified (C-terminus); printed as cbz-GQWHCT-Dpr(Gd^T)-RFPHHYCLYG) [Comp ID 939]
Result :: 4

Query :: Name the reported % bound value associated with the binder GQWHCTTSFPHHYCLYG (not fully specified; Gd^T-GQWHCTTSFPHHYCLYG) [Comp ID 869]
Result :: 46

Query :: Fill in the blank: the reported % bound of {Gd^T}-GQWHCT[dR]RFPHHYCLYG (disulfide 5-14 (inferred); not fully specified (C-terminus); printed as Gd^T-GQWHCTrRFPHHYCLYG; reading uncertain) [Comp ID 900] is ____.
Result :: 4
